System: U2OS
Assay: Multiplex assay against U2OS
Assay type: toxicity, cell-based
Settings: human, 12 h, 1 µM, compound concentration 1 uM, replicate 2
Population Healthy Nuclei (%) listing for selected compounds.
Use % as the unit, but write only the number.

NC(=O)Nc1cc(-c2cccc(F)c2)sc1C(=O)N[C@H]1CCCNC1
81
Cc1nc(Nc2n[nH]c3c2CN(C(=O)N[C@H](CN(C)C)c2ccccc2)C3(C)C)c2sccc2n1
78
Cc1c(-c2ccc(O)cc2)n(Cc2ccc(OCCN3CCCCCC3)cc2)c2ccc(O)cc12
81
CC(C)(O)CNc1ncc(-c2ccnc(Nc3ccnc(Cl)c3)n2)c(CC2CC2)n1
78

Form: Entry = COc1cccc([C@@H](C)NCCCc2ccccc2Cl)c1.Cl [TECALCET HYDROCHLORIDE] | System = U2OS | Population Healthy Nuclei (%) = ____
81

Form: Entry = "CN1CCN(c2ccc(OC(F)(F)F)c(Nc3ncc4c(n3)-c3c(c(C(N)=O)nn3CCO)CC4)c2)CC1" | System = U2OS | Population Healthy Nuclei (%) = ____
80

Form: Entry = "Cc1nc(-c2ccc(-c3ccc(C(=O)N4CCc5cc6c(cc54)C4(CCN(C)CC4)CO6)cc3)c(C)c2)no1" | System = U2OS | Population Healthy Nuclei (%) = ____
81

Form: Entry = "CNc1nc(NCc2ccc(NS(C)(=O)=O)cc2Cl)cc(-c2ccccn2)n1" | System = U2OS | Population Healthy Nuclei (%) = ____
82

----------
System: HEK-293T
Test: Multiplex assay against HEK293T
Type: toxicity, cell-based
Details: human, 12 h, 1 µM, compound concentration 1 uM, replicate 1
Response key: Satisfied means Total Cell Count >= 300; Not satisfied means Total Cell Count < 300.

Cl.N#Cc1ccc2[nH]cc(CCCCN3CCN(c4ccc5oc(C(N)=O)cc5c4)CC3)c2c1 [VILAZODONE HYDROCHLORIDE]
Satisfied
Cc1nc(Nc2n[nH]c3c2CN(C(=O)N[C@H](CN(C)C)c2ccccc2)C3(C)C)c2sccc2n1
Satisfied
CN(C)C(=O)N[C@H]1CC[C@H](CCN2CCN(c3cccc(Cl)c3Cl)CC2)CC1.Cl [CARIPRAZINE HYDROCHLORIDE]
Satisfied

Is reported Total Cell Count greater than or equal to 300 here: "OC1(c2ccc(Cl)cc2)CCN(Cc2c[nH]c3ccccc23)CC1"
Not satisfied

Is reported Total Cell Count greater than or equal to 300 here: CN1CCC[C@@H]1CCO[C@](C)(c1ccccc1)c1ccc(Cl)cc1.O=C(O)/C=C/C(=O)O [CLEMASTINE FUMARATE]
Not satisfied

Is reported Total Cell Count greater than or equal to 300 here: "NC(=O)Nc1cc(-c2cccc(F)c2)sc1C(=O)N[C@H]1CCCNC1"
Satisfied

Is reported Total Cell Count greater than or equal to 300 here: C=CC(=O)Nc1cc2c(Nc3ccc(F)c(Cl)c3)ncnc2cc1OCCCN1CCOCC1.Cl.Cl [CANERTINIB DIHYDROCHLORIDE]
Satisfied

Is reported Total Cell Count greater than or equal to 300 here: "Cc1csc2c(N[C@@H](C)CN3CCN(S(=O)(=O)c4ccc(Cl)c(Cl)c4)CC3)ncnc12"
Not satisfied

Is reported Total Cell Count greater than or equal to 300 here: "COc1ncc(-c2ccc3nccc(-c4ccnnc4)c3c2)cc1NS(=O)(=O)c1ccc(F)cc1F"
Not satisfied

Is reported Total Cell Count greater than or equal to 300 here: "Cc1nc(-c2ccc(-c3ccc(C(=O)N4CCc5cc6c(cc54)C4(CCN(C)CC4)CO6)cc3)c(C)c2)no1"
Not satisfied
